Test: Example 18 cynomolgus monkey PK study (SC and IM)
Assay type: in vivo, cynomolgus monkeys
Details: male, cynomolgus monkey, plasma, intramuscular, 20 mg/kg equivalent of EFdA, IM 20 mg/kg equivalent of EFdA; Monkey 2001; 0.208 days; read-out: Example 18 plasma concentrations
assay_metric: concentration at 0.208 days (µg/mL)
Use µg/mL as the unit, but write only the number.

// concentration at 0.208 days value for C#C[C@]1(COC(=O)CCCCCCCCC)O[C@@H](n2cnc3c(N)nc(F)nc32)C[C@@H]1OC(=O)CCCCCCCCC : 0.0513

---

Assay: Example 18 cynomolgus monkey PK study (SC and IM)
Type: in vivo, cynomolgus monkeys
Settings: male, cynomolgus monkey, plasma, intramuscular, 20 mg/kg equivalent of EFdA, IM 20 mg/kg equivalent of EFdA; Monkey 2001; 19 days; read-out: Example 18 plasma concentrations
assay_metric: concentration at 19 days (ng/mL)
Use ng/mL as the unit, but write only the number.

// concentration at 19 days value for C#C[C@]1(COC(=O)CCCCCCCCC)O[C@@H](n2cnc3c(N)nc(F)nc32)C[C@@H]1OC(=O)CCCCCCCCC : 0.119
